- measured target: Sodium/hydrogen exchanger 1 (Rattus norvegicus, UniProt P26431)
- Sequence (P26431 whole entry): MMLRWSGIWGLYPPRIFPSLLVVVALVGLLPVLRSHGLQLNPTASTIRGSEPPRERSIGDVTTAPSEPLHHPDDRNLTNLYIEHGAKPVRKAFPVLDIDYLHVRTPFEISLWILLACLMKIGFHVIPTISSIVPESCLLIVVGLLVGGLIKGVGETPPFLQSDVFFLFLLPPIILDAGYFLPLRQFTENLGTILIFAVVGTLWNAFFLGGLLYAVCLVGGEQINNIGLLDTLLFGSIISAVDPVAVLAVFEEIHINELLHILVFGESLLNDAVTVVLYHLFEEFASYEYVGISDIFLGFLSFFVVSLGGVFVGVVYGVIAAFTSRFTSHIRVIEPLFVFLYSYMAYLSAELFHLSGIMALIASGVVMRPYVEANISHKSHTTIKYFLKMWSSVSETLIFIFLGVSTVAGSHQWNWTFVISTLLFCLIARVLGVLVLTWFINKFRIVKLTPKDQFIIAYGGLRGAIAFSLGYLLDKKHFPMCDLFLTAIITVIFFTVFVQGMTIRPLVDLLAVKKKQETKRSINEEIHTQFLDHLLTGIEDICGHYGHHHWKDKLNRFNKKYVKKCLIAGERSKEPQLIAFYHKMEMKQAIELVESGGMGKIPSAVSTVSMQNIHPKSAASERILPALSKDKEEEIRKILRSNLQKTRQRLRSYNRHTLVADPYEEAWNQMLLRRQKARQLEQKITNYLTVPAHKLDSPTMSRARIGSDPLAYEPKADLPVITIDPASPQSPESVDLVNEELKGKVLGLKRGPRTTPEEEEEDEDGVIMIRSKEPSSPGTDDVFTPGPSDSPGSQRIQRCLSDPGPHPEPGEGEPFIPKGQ
- experimental protocol: Inhibition of NHE1 in Sprague-Dawley rat platelet-rich plasma by optical swelling assay
pIC50: −log10 of the molar value.
Label rule, in plain words: pIC50 of 8 and up is condition met, under 8 is condition not met.

> print(dat)
                                    molecule           category
 1  COc1ccc2[nH]c(SC3Cc4ccc(F)cc4/C3=N\N=C(N)N)nc2c1 (configuration not stated)  condition not met
 2  NC(N)=N/N=C1\c2ccc(Cl)cc2CC1Sc1nc2ccccc2[nH]1 (configuration not stated)  condition not met
 3  NC(N)=N/N=C1\c2cc(F)ccc2CC1Sc1nc2ccccc2s1 (configuration not stated)  condition not met
 4  COc1cc2c(cc1OC)/C(=N\N=C(N)N)C(Sc1nc3ccccc3s1)C2 (configuration not stated)      condition met
 5  NC(N)=N/N=C1\c2cc(Cl)cc(Cl)c2CC1Sc1nc2ccccc2[nH]1 (configuration not stated)  condition not met
 6  COc1cc2c(c(OC)c1OC)CC(Sc1nc3cc([N+](=O)[O-])ccc3[nH]1)/C2=N/N=C(N)N (configuration not stated)  condition not met
 7  COc1ccc2c(c1)/C(=N\N=C(N)N)C(Sc1nc3ccccc3s1)C2.Cl (configuration not stated)      condition met
 8  NC(N)=N/N=C1\c2cc(Cl)ccc2CC1Sc1nc2cc([N+](=O)[O-])ccc2[nH]1 (configuration not stated)  condition not met
 9  NC(N)=N/N=C1\c2cccc(Cl)c2CC1Sc1nc2ccccc2s1 (configuration not stated)  condition not met
10  Br.COc1ccc2[nH]c(SC3Cc4cc(Cl)ccc4/C3=N\N=C(N)N)nc2c1.Cl (configuration not stated)      condition met
11  NC(N)=N/N=C1\c2cc(Cl)ccc2CC1Sc1nc2ccccc2s1 (configuration not stated)  condition not met
12  NC(N)=N/N=C1\c2ccc(Cl)cc2CC1Sc1nc2ccccc2s1 (configuration not stated)      condition met
13  Cl.NC(N)=N/N=C1\c2ccccc2CC1Sc1nc2cc([N+](=O)[O-])ccc2[nH]1 (configuration not stated)      condition met

----------
- measured target: Sodium/hydrogen exchanger 1 (Rattus norvegicus)
- experimental protocol: Inhibition of NHE1 in Sprague-Dawley rat platelet-rich plasma by optical swelling assay
We begin with a simple list: items and their reported IC50.
property name: IC50 (nM)

> print(dat)
                                   compound  assay.value
1  NC(N)=N/N=C1\c2ccc(Cl)cc2CC1Sc1nc2cc([N+](=O)[O-])ccc2[nH]1 (centres undefined)         12.2
2  COc1cc2c(c(OC)c1OC)CC(Sc1nc3ccccc3[nH]1)/C2=N/N=C(N)N (centres undefined)         10.8
3  COc1ccc2[nH]c(SC3Cc4ccccc4/C3=N\N=C(N)N)nc2c1 (centres undefined)         16.8
4  COc1cc2c(cc1OC)/C(=N\N=C(N)N)C(Sc1nc3ccccc3[nH]1)C2 (centres undefined)         11.2
